Overview of reported MIC across a group of compounds:
tested on: A. baumannii ATCC 19606; assay type: cell-based; conditions: ATCC 19606, 20 h
Non-standard residues stand in square brackets, D forms with d. Residues, ends and D or L forms follow the SMILES beside them. N(5-aminopentyl)Gly = NCCCCCNCC(=O)O; hPhe = N[C@@H](CCc1ccccc1)C(=O)O; Nlys = NCCCCNCC(=O)O
readout_type: MIC

NCCCCNCC(=O)N[C@@H](CCc1ccccc1)C(=O)N(CCCCN)CC(=O)N[C@@H](CCc1ccccc1)C(=O)N(CCCCN)CC(=O)N[C@@H](CCc1ccccc1)C(=O)N(CCCCN)CC(=O)N[C@@H](CCc1ccccc1)C(=O)N(CCCCN)CC(=O)N[C@@H](CCc1ccccc1)C(=O)N(CCCCN)CC(=O)N[C@@H](CCc1ccccc1)C(N)=O [Peptidomimetic 7] (H-[Nlys][hPhe][Nlys][hPhe][Nlys][hPhe][Nlys][hPhe][Nlys][hPhe][Nlys][hPhe]-NH2) ... >64 µg/mL
NCCCCNCC(=O)N[C@@H](Cc1ccccc1)C(=O)N(CCCCN)CC(=O)N[C@@H](Cc1ccccc1)C(=O)N(CCCCN)CC(=O)N[C@@H](Cc1ccccc1)C(=O)N(CCCCN)CC(=O)N[C@@H](Cc1ccccc1)C(=O)N(CCCCN)CC(=O)N[C@@H](Cc1ccccc1)C(=O)N(CCCCN)CC(=O)N[C@@H](Cc1ccccc1)C(N)=O [Peptidomimetic 3] (H-[Nlys]F[Nlys]F[Nlys]F[Nlys]F[Nlys]F[Nlys]F-NH2) ... >64 µg/mL
NCCCCCNCC(=O)N[C@@H](Cc1ccccc1)C(=O)N(CCCCCN)CC(=O)N[C@@H](Cc1ccccc1)C(=O)N(CCCCCN)CC(=O)N[C@@H](Cc1ccccc1)C(=O)N(CCCCCN)CC(=O)N[C@@H](Cc1ccccc1)C(=O)N(CCCCCN)CC(=O)N[C@@H](Cc1ccccc1)C(=O)N(CCCCCN)CC(=O)N[C@@H](Cc1ccccc1)C(N)=O [Peptidomimetic 4] (H-[N(5-aminopentyl)Gly]F[N(5-aminopentyl)Gly]F[N(5-aminopentyl)Gly]F[N(5-aminopentyl)Gly]F[N(5-aminopentyl)Gly]F[N(5-aminopentyl)Gly]F-NH2) ... 64 µg/mL

---

tested on: S. aureus ATCC 29213; format: cell-based; details: ATCC 29213, 20 h
Non-standard residues stand in square brackets, D forms with d. Residues, ends and D or L forms follow the SMILES beside them. Gly(NCH2CH2Ph) = O=C(O)CNCCc1ccccc1; hPhe = N[C@@H](CCc1ccccc1)C(=O)O; Gly(N(CH2)3NH2) = NCCCNCC(=O)O; Nphe = O=C(O)CNCc1ccccc1; Orn = NCCC[C@H](N)C(=O)O
Overview of reported MIC across a group of compounds:
readout_type: MIC

NCCCNCC(=O)N[C@@H](CCc1ccccc1)C(=O)N(CCCN)CC(=O)N[C@@H](CCc1ccccc1)C(=O)N(CCCN)CC(=O)N[C@@H](CCc1ccccc1)C(=O)N(CCCN)CC(=O)N[C@@H](CCc1ccccc1)C(=O)N(CCCN)CC(=O)N[C@@H](CCc1ccccc1)C(=O)N(CCCN)CC(=O)N[C@@H](CCc1ccccc1)C(N)=O [Peptidomimetic 6] (H-[Gly(N(CH2)3NH2)][hPhe][Gly(N(CH2)3NH2)][hPhe][Gly(N(CH2)3NH2)][hPhe][Gly(N(CH2)3NH2)][hPhe][Gly(N(CH2)3NH2)][hPhe][Gly(N(CH2)3NH2)][hPhe]-NH2) ... 16 µg/mL
NCCCC[C@H](NC(=O)CN(Cc1ccccc1)C(=O)[C@H](CCCCN)NC(=O)CN(Cc1ccccc1)C(=O)[C@H](CCCCN)NC(=O)CN(Cc1ccccc1)C(=O)[C@H](CCCCN)NC(=O)CN(Cc1ccccc1)C(=O)[C@H](CCCCN)NC(=O)CN(Cc1ccccc1)C(=O)[C@@H](N)CCCCN)C(=O)N(CC(N)=O)Cc1ccccc1 [Peptidomimetic 11] (H-K[Nphe]K[Nphe]K[Nphe]K[Nphe]K[Nphe]K[Nphe]-NH2) ... >64 µg/mL
NCCC[C@H](NC(=O)CN(CCc1ccccc1)C(=O)[C@H](CCCN)NC(=O)CN(CCc1ccccc1)C(=O)[C@H](CCCN)NC(=O)CN(CCc1ccccc1)C(=O)[C@H](CCCN)NC(=O)CN(CCc1ccccc1)C(=O)[C@H](CCCN)NC(=O)CN(CCc1ccccc1)C(=O)[C@@H](N)CCCN)C(=O)N(CCc1ccccc1)CC(N)=O [Peptidomimetic 14] (H-[Orn][Gly(NCH2CH2Ph)][Orn][Gly(NCH2CH2Ph)][Orn][Gly(NCH2CH2Ph)][Orn][Gly(NCH2CH2Ph)][Orn][Gly(NCH2CH2Ph)][Orn][Gly(NCH2CH2Ph)]-NH2) ... >64 µg/mL

---

system: A. baumannii ATCC 19606; assay type: cell-based; conditions: ATCC 19606, 20 h
Non-standard residues stand in square brackets, D forms with d. Residues, ends and D or L forms follow the SMILES beside them. Gly(NCH2CH2Ph) = O=C(O)CNCCc1ccccc1
readout_type: MIC (µg/mL)

NCCCC[C@H](NC(=O)CN(CCc1ccccc1)C(=O)[C@H](CCCCN)NC(=O)CN(CCc1ccccc1)C(=O)[C@H](CCCCN)NC(=O)CN(CCc1ccccc1)C(=O)[C@H](CCCCN)NC(=O)CN(CCc1ccccc1)C(=O)[C@H](CCCCN)NC(=O)CN(CCc1ccccc1)C(=O)[C@@H](N)CCCCN)C(=O)N(CCc1ccccc1)CC(N)=O [Peptidomimetic 15] (H-K[Gly(NCH2CH2Ph)]K[Gly(NCH2CH2Ph)]K[Gly(NCH2CH2Ph)]K[Gly(NCH2CH2Ph)]K[Gly(NCH2CH2Ph)]K[Gly(NCH2CH2Ph)]-NH2) ... 64

---

tested on: S. aureus ATCC 29213; format: cell-based; conditions: ATCC 29213, 20 h
Non-standard residues stand in square brackets, D forms with d. Residues, ends and D or L forms follow the SMILES beside them. Gly(NCH2CH2Ph) = O=C(O)CNCCc1ccccc1; Gly(N(CH2)3NH2) = NCCCNCC(=O)O; hLys = NCCCCC[C@H](N)C(=O)O
Overview of reported MIC across a group of compounds:
readout_type: MIC

NCCCCC[C@H](NC(=O)CN(CCc1ccccc1)C(=O)[C@H](CCCCCN)NC(=O)CN(CCc1ccccc1)C(=O)[C@H](CCCCCN)NC(=O)CN(CCc1ccccc1)C(=O)[C@H](CCCCCN)NC(=O)CN(CCc1ccccc1)C(=O)[C@H](CCCCCN)NC(=O)CN(CCc1ccccc1)C(=O)[C@@H](N)CCCCCN)C(=O)N(CCc1ccccc1)CC(N)=O [Peptidomimetic 16] (H-[hLys][Gly(NCH2CH2Ph)][hLys][Gly(NCH2CH2Ph)][hLys][Gly(NCH2CH2Ph)][hLys][Gly(NCH2CH2Ph)][hLys][Gly(NCH2CH2Ph)][hLys][Gly(NCH2CH2Ph)]-NH2) ... >64 µg/mL
NCCCNCC(=O)N[C@@H](Cc1ccccc1)C(=O)N(CCCN)CC(=O)N[C@@H](Cc1ccccc1)C(=O)N(CCCN)CC(=O)N[C@@H](Cc1ccccc1)C(=O)N(CCCN)CC(=O)N[C@@H](Cc1ccccc1)C(=O)N(CCCN)CC(=O)N[C@@H](Cc1ccccc1)C(=O)N(CCCN)CC(=O)N[C@@H](Cc1ccccc1)C(N)=O [Peptidomimetic 2] (H-[Gly(N(CH2)3NH2)]F[Gly(N(CH2)3NH2)]F[Gly(N(CH2)3NH2)]F[Gly(N(CH2)3NH2)]F[Gly(N(CH2)3NH2)]F[Gly(N(CH2)3NH2)]F-NH2) ... >64 µg/mL

---

tested on: S. aureus ATCC 29213; format: cell-based; details: ATCC 29213, 20 h
Non-standard residues stand in square brackets, D forms with d. Residues, ends and D or L forms follow the SMILES beside them. N(5-aminopentyl)Gly = NCCCCCNCC(=O)O; Gly(NCH2CH2Ph) = O=C(O)CNCCc1ccccc1; Gly(N-2-aminoethyl) = NCCNCC(=O)O; hPhe = N[C@@H](CCc1ccccc1)C(=O)O; hLys = NCCCCC[C@H](N)C(=O)O; Nphe = O=C(O)CNCc1ccccc1; Orn = NCCC[C@H](N)C(=O)O; Dab = NCC[C@H](N)C(=O)O; Nlys = NCCCCNCC(=O)O
readout_type: MIC

NCCC[C@H](NC(=O)CN(Cc1ccccc1)C(=O)[C@H](CCCN)NC(=O)CN(Cc1ccccc1)C(=O)[C@H](CCCN)NC(=O)CN(Cc1ccccc1)C(=O)[C@H](CCCN)NC(=O)CN(Cc1ccccc1)C(=O)[C@H](CCCN)NC(=O)CN(Cc1ccccc1)C(=O)[C@@H](N)CCCN)C(=O)N(CC(N)=O)Cc1ccccc1 [Peptidomimetic 10] (H-[Orn][Nphe][Orn][Nphe][Orn][Nphe][Orn][Nphe][Orn][Nphe][Orn][Nphe]-NH2) ... >64 µg/mL
NCCCCC[C@H](NC(=O)CN(Cc1ccccc1)C(=O)[C@H](CCCCCN)NC(=O)CN(Cc1ccccc1)C(=O)[C@H](CCCCCN)NC(=O)CN(Cc1ccccc1)C(=O)[C@H](CCCCCN)NC(=O)CN(Cc1ccccc1)C(=O)[C@H](CCCCCN)NC(=O)CN(Cc1ccccc1)C(=O)[C@@H](N)CCCCCN)C(=O)N(CC(N)=O)Cc1ccccc1 [Peptidomimetic 12] (H-[hLys][Nphe][hLys][Nphe][hLys][Nphe][hLys][Nphe][hLys][Nphe][hLys][Nphe]-NH2) ... >64 µg/mL
NCC[C@H](NC(=O)CN(Cc1ccccc1)C(=O)[C@H](CCN)NC(=O)CN(Cc1ccccc1)C(=O)[C@H](CCN)NC(=O)CN(Cc1ccccc1)C(=O)[C@H](CCN)NC(=O)CN(Cc1ccccc1)C(=O)[C@H](CCN)NC(=O)CN(Cc1ccccc1)C(=O)[C@@H](N)CCN)C(=O)N(CC(N)=O)Cc1ccccc1 [Peptidomimetic 9] (H-[Dab][Nphe][Dab][Nphe][Dab][Nphe][Dab][Nphe][Dab][Nphe][Dab][Nphe]-NH2) ... >64 µg/mL
NCCNCC(=O)N[C@@H](Cc1ccccc1)C(=O)N(CCN)CC(=O)N[C@@H](Cc1ccccc1)C(=O)N(CCN)CC(=O)N[C@@H](Cc1ccccc1)C(=O)N(CCN)CC(=O)N[C@@H](Cc1ccccc1)C(=O)N(CCN)CC(=O)N[C@@H](Cc1ccccc1)C(=O)N(CCN)CC(=O)N[C@@H](Cc1ccccc1)C(N)=O [Peptidomimetic 1] (H-[Gly(N-2-aminoethyl)]F[Gly(N-2-aminoethyl)]F[Gly(N-2-aminoethyl)]F[Gly(N-2-aminoethyl)]F[Gly(N-2-aminoethyl)]F[Gly(N-2-aminoethyl)]F-NH2) ... >64 µg/mL
NCC[C@H](NC(=O)CN(CCc1ccccc1)C(=O)[C@H](CCN)NC(=O)CN(CCc1ccccc1)C(=O)[C@H](CCN)NC(=O)CN(CCc1ccccc1)C(=O)[C@H](CCN)NC(=O)CN(CCc1ccccc1)C(=O)[C@H](CCN)NC(=O)CN(CCc1ccccc1)C(=O)[C@@H](N)CCN)C(=O)N(CCc1ccccc1)CC(N)=O [Peptidomimetic 13] (H-[Dab][Gly(NCH2CH2Ph)][Dab][Gly(NCH2CH2Ph)][Dab][Gly(NCH2CH2Ph)][Dab][Gly(NCH2CH2Ph)][Dab][Gly(NCH2CH2Ph)][Dab][Gly(NCH2CH2Ph)]-NH2) ... >64 µg/mL
NCCCCCNCC(=O)N[C@@H](Cc1ccccc1)C(=O)N(CCCCCN)CC(=O)N[C@@H](Cc1ccccc1)C(=O)N(CCCCCN)CC(=O)N[C@@H](Cc1ccccc1)C(=O)N(CCCCCN)CC(=O)N[C@@H](Cc1ccccc1)C(=O)N(CCCCCN)CC(=O)N[C@@H](Cc1ccccc1)C(=O)N(CCCCCN)CC(=O)N[C@@H](Cc1ccccc1)C(N)=O [Peptidomimetic 4] (H-[N(5-aminopentyl)Gly]F[N(5-aminopentyl)Gly]F[N(5-aminopentyl)Gly]F[N(5-aminopentyl)Gly]F[N(5-aminopentyl)Gly]F[N(5-aminopentyl)Gly]F-NH2) ... >64 µg/mL
NCCCCNCC(=O)N[C@@H](Cc1ccccc1)C(=O)N(CCCCN)CC(=O)N[C@@H](Cc1ccccc1)C(=O)N(CCCCN)CC(=O)N[C@@H](Cc1ccccc1)C(=O)N(CCCCN)CC(=O)N[C@@H](Cc1ccccc1)C(=O)N(CCCCN)CC(=O)N[C@@H](Cc1ccccc1)C(=O)N(CCCCN)CC(=O)N[C@@H](Cc1ccccc1)C(N)=O [Peptidomimetic 3] (H-[Nlys]F[Nlys]F[Nlys]F[Nlys]F[Nlys]F[Nlys]F-NH2) ... >64 µg/mL
NCCCCNCC(=O)N[C@@H](CCc1ccccc1)C(=O)N(CCCCN)CC(=O)N[C@@H](CCc1ccccc1)C(=O)N(CCCCN)CC(=O)N[C@@H](CCc1ccccc1)C(=O)N(CCCCN)CC(=O)N[C@@H](CCc1ccccc1)C(=O)N(CCCCN)CC(=O)N[C@@H](CCc1ccccc1)C(=O)N(CCCCN)CC(=O)N[C@@H](CCc1ccccc1)C(N)=O [Peptidomimetic 7] (H-[Nlys][hPhe][Nlys][hPhe][Nlys][hPhe][Nlys][hPhe][Nlys][hPhe][Nlys][hPhe]-NH2) ... >64 µg/mL
NCCCC[C@H](NC(=O)CN(CCc1ccccc1)C(=O)[C@H](CCCCN)NC(=O)CN(CCc1ccccc1)C(=O)[C@H](CCCCN)NC(=O)CN(CCc1ccccc1)C(=O)[C@H](CCCCN)NC(=O)CN(CCc1ccccc1)C(=O)[C@H](CCCCN)NC(=O)CN(CCc1ccccc1)C(=O)[C@@H](N)CCCCN)C(=O)N(CCc1ccccc1)CC(N)=O [Peptidomimetic 15] (H-K[Gly(NCH2CH2Ph)]K[Gly(NCH2CH2Ph)]K[Gly(NCH2CH2Ph)]K[Gly(NCH2CH2Ph)]K[Gly(NCH2CH2Ph)]K[Gly(NCH2CH2Ph)]-NH2) ... >64 µg/mL
